Every entry's value here was drawn from ChEMBL document CHEMBL3352472.

# assay-name: Aqueous solubility of the compound
# Format: physicochemical
# condition: buffer
metric: solubility

Given item CC1(C)CN(c2ccccc2NC(=O)Nc2ccc(OC(F)(F)F)cc2)c2c(O)cc(F)c(-c3ccc(Cl)cc3)c21 , the value recorded as its solubility is < 1 µg/mL

====

# assay-name: Metabolic stability in rat liver microsomes assessed as compound remaining at 0.5 uM after 10 mins
# Type: ADME
# condition: read-out: Stability
// values below are reported remaining at 10 min, 0.5 µM
Record the value in %, omitting the unit from your answer.

- compound-structure: "CC1(C)CN(c2ccccc2NC(=O)Nc2ccc(OC(F)(F)F)cc2)c2c(O)ccc(-c3ccccc3)c21"
  metric: "remaining at 10 min, 0.5 µM"
  measured-value: 67
- compound-structure: "CC1(C)CN(c2ccccc2NC(=O)Nc2ccc(OC(F)(F)F)cc2)c2c(O)cc(F)c(-c3cc(F)nc(F)c3)c21"
  metric: "remaining at 10 min, 0.5 µM"
  measured-value: 80

Given item CC1(C)CN(c2ccccc2NC(=O)Nc2ccc(OC(F)(F)F)cc2)c2c(O)cc(F)c(-c3ccc(C(F)(F)F)nc3)c21 , the value recorded as its remaining at 10 min, 0.5 µM is 69

====

# target: UniProt:P41231
# Sequence (P41231 whole entry): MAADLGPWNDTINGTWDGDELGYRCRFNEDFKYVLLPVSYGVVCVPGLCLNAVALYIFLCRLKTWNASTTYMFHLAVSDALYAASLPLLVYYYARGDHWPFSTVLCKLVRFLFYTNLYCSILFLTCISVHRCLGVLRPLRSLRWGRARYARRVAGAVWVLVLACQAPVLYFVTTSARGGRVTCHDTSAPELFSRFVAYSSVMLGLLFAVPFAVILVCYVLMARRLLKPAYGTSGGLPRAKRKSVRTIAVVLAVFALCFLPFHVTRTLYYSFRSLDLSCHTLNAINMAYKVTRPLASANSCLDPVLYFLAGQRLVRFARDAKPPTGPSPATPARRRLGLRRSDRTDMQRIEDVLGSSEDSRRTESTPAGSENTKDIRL
metric: IC50

// compound CC(C)(C)CN1CCC2(CC1)CN(c1ccccc1NC(=O)Nc1nc3ccc(Cl)nc3s1)c1c(O)cc(F)c(-c3ccc(F)cc3)c12 , assay UniProt:P41231, IC50 value: > 10 µM

====

# target: P2Y purinoceptor 1 (Homo sapiens)
# Sequence (P47900 whole entry): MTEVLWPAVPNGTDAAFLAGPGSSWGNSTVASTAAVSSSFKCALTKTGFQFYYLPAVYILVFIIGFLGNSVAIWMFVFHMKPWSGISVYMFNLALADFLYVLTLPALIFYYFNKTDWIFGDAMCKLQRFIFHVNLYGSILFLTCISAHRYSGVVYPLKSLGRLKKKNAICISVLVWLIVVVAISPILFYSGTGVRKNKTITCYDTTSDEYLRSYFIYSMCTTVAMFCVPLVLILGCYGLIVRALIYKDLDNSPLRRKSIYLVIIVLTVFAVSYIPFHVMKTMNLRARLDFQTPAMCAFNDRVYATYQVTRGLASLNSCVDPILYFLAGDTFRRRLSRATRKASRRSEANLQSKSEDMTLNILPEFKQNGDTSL
# assay-name: Antagonist activity at P2Y1 receptor in washed human platelets assessed as 1 uM 2-methylthio-ADP-induced calcium flux by FLIPR assay
// values below are reported log10 IC50
Reminder: these figures are log10 of reported IC50, in nM before transformation.

- compound: "CC1(C)CN(c2ccccc2NC(=O)Nc2ccc(OC(F)(F)F)cc2)c2c(O)cc(F)c(-c3cc(F)nc(F)c3)c21"
  target: "P2Y purinoceptor 1 (Homo sapiens)"
  metric: "log10 IC50"
  measured-value: -0.33
- compound: "CC1(C)CN(c2ccccc2NC(=O)Nc2ccc(OC(F)(F)F)cc2)c2c(O)cc(F)c(-c3ccc(F)cc3)c21"
  target: "P2Y purinoceptor 1 (Homo sapiens)"
  metric: "log10 IC50"
  measured-value: -0.64
- compound: "CC(C)(C)CN1CCCC1c1ccc(NC(=O)Nc2ccccc2N2CC(C)(C)c3c(-c4ccc(F)cc4)ccc(O)c32)cc1 (stereo unspecified)"
  target: "P2Y purinoceptor 1 (Homo sapiens)"
  metric: "log10 IC50"
  measured-value: -1.40
- compound: "CC1(C)CN(c2ccccc2NC(=O)Nc2ccc(OC(F)(F)F)cc2)c2c(O)ccc(-c3ccc(C(F)(F)F)cc3)c21"
  target: "P2Y purinoceptor 1 (Homo sapiens)"
  metric: "log10 IC50"
  measured-value: 0.18
- compound: "CC1(C)CN(c2ccccc2NC(=O)Nc2csc(Cl)n2)c2c(O)ccc(-c3ccc(F)cc3)c21"
  target: "P2Y purinoceptor 1 (Homo sapiens)"
  metric: "log10 IC50"
  measured-value: -1.52

// compound CC1(C)CN(c2ccccc2NC(=O)Nc2ccc(OC(F)(F)F)cc2)c2c(O)ccc(-c3ccccc3F)c21 , assay P2Y purinoceptor 1 (Homo sapiens), log10 IC50 value: -0.43

// compound CC1(C)CN(c2ccccc2NC(=O)Nc2ccc(OC(F)(F)F)cc2)c2c(O)ccc(-c3ccc(F)cc3F)c21 , assay P2Y purinoceptor 1 (Homo sapiens), log10 IC50 value: -0.28

// compound CC1(C)CN(c2ccccc2NC(=O)Nc2ccc(OC(F)(F)F)cc2)c2c(O)ccc(-c3ccccc3)c21 , assay P2Y purinoceptor 1 (Homo sapiens), log10 IC50 value: -0.43

// compound CCOC(=O)C1(C)CN(c2ccccc2NC(=O)Nc2ccc(OC(F)(F)F)cc2)c2c(O)ccc(Cl)c21 (stereo unspecified) , assay P2Y purinoceptor 1 (Homo sapiens), log10 IC50 value: -1.05

// compound CC1(C)CN(c2ccccc2NC(=O)Nc2ccc(OC(F)(F)F)cc2)c2c(O)ccc(-c3ccc(F)c(F)c3)c21 , assay P2Y purinoceptor 1 (Homo sapiens), log10 IC50 value: 0.26

// compound CC(C)(C)CN1CCC2(CC1)CN(c1ccccc1NC(=O)Nc1ccc(OC(F)(F)F)cc1)c1c(O)cc(F)c(-c3ccc(F)cc3)c12 , assay P2Y purinoceptor 1 (Homo sapiens), log10 IC50 value: -1.05

// compound CC1(C)CN(c2ccccc2NC(=O)Nc2ccc(OC(F)(F)F)cc2)c2c(O)cc(F)c(-c3ccc(C(F)(F)F)nc3)c21 , assay P2Y purinoceptor 1 (Homo sapiens), log10 IC50 value: -0.29

// compound CC1(C)CN(c2ccccc2NC(=O)Nc2nc3ccc(Cl)nc3s2)c2c(O)ccc(Cl)c21 , assay P2Y purinoceptor 1 (Homo sapiens), log10 IC50 value: -0.85

// compound CC1(C)CN(c2ccccc2NC(=O)Nc2ccc(OC(F)(F)F)cc2)c2c(O)cc(F)c(-c3ccc(C(F)(F)F)cn3)c21 , assay P2Y purinoceptor 1 (Homo sapiens), log10 IC50 value: -0.24

// compound CC1(C)CN(c2ccccc2NC(=O)Nc2ccc(OC(F)(F)F)cc2)c2c(O)cc(F)c(-c3ccc(Cl)cc3)c21 , assay P2Y purinoceptor 1 (Homo sapiens), log10 IC50 value: 0.03

// compound CC1(C)CN(c2ccccc2NC(=O)Nc2ccc(OC(F)(F)F)cc2)c2c(O)cc(F)c(-c3ncc(F)cn3)c21 , assay P2Y purinoceptor 1 (Homo sapiens), log10 IC50 value: -0.52

====

# assay-name: Volume of distribution at steady state in rat at 0.5 mg/kg by cassette dosing method
# Type: ADME, organism-based
# Design: dose 0.5 mg/kg
# condition: in vivo, read-out: Vdss
metric: Vd (L/kg)
Record the value in L/kg, omitting the unit from your answer.

See these solved cases before continuing.
- molecule: "CC(C)CN1CCCC1c1ccc(NC(=O)Nc2ccccc2N2CC(C)(C)c3c(-c4ccc(F)cc4)ccc(O)c32)cc1 (stereo not given)"
  metric: "Vd"
  value-units: "L/kg"
  measured-value: 9.8
- molecule: "CC(C)(C)CN1CCC2(CC1)CN(c1ccccc1NC(=O)Nc1ccc(OC(F)(F)F)cc1)c1c(O)cc(F)c(-c3ccc(Cl)cc3)c12"
  metric: "Vd"
  value-units: "L/kg"
  measured-value: 1.3

Given item CC(C)(C)CN1CCC2(CC1)CN(c1ccccc1NC(=O)Nc1nc3ccc(Cl)nc3s1)c1c(O)ccc(Cl)c12 , the value recorded as its Vd is 5.4

Given item CC(C)(C)CN1CCC2(CC1)CN(c1ccccc1NC(=O)Nc1ccc(OC(F)(F)F)cc1)c1c(O)cc(F)c(-c3ccc(F)cc3)c12 , the value recorded as its Vd is 1

Given item CC(C)(C)CN1CCC2(CC1)CN(c1ccccc1NC(=O)Nc1nc3ccc(Cl)nc3s1)c1c(O)cc(F)c(-c3ccc(F)cc3)c12 , the value recorded as its Vd is 2.1

====

# target: P2Y purinoceptor 12 (Homo sapiens)
# Sequence (Q9H244 whole entry): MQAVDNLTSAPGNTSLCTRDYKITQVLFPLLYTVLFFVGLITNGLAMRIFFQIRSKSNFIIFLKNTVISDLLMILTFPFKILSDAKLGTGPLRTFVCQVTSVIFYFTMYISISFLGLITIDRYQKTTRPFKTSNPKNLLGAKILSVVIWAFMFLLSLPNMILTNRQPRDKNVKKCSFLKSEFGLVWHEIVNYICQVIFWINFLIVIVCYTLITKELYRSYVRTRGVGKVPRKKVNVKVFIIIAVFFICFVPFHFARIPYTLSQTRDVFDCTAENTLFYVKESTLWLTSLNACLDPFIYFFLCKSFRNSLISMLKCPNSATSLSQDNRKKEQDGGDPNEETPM
pIC50: −log10 of the molar value.
metric: pIC50

Given item CC(C)(C)CN1CCC2(CC1)CN(c1ccccc1NC(=O)Nc1nc3ccc(Cl)nc3s1)c1c(O)cc(F)c(-c3ccc(F)cc3)c12 , the value recorded as its pIC50 is < 5.00

====

# assay-name: Metabolic stability in human liver microsomes assessed as compound remaining at 0.5 uM after 10 mins
# Type: ADME
# condition: read-out: Stability
// values below are reported remaining at 10 min, 0.5 µM

See these solved cases before continuing.
- compound: "CC1(C)CN(c2ccccc2NC(=O)Nc2ccc(OC(F)(F)F)cc2)c2c(O)ccc(-c3ccc(F)cc3)c21"
  measured-value: "87%"
- compound: "CCOC(=O)C1(C)CN(c2ccccc2NC(=O)Nc2nc3ccc(Cl)nc3s2)c2c(O)ccc(Cl)c21 (stereo unspecified)"
  measured-value: "47%"
- compound: "CC1(C)CN(c2ccccc2NC(=O)Nc2ccc(OC(F)(F)F)cc2)c2c(O)ccc(Cl)c21"
  measured-value: "66%"
- compound: "CC1(C)CN(c2ccccc2NC(=O)Nc2ccc(OC(F)(F)F)cc2)c2c(O)ccc(-c3cccc(F)c3)c21"
  measured-value: "67%"

Given item CC1(C)CN(c2ccccc2NC(=O)Nc2ccc(OC(F)(F)F)cc2)c2c(O)ccc(-c3cc(F)cc(F)c3)c21 , the value recorded as its remaining at 10 min, 0.5 µM is 63%

Given item CC1(C)CN(c2ccccc2NC(=O)Nc2ccc(OC(F)(F)F)cc2)c2c(O)cc(F)c(-c3ccc(F)cc3)c21 , the value recorded as its remaining at 10 min, 0.5 µM is 73%

Given item CC1(C)CN(c2ccccc2NC(=O)Nc2ccc(OC(F)(F)F)cc2)c2c(O)cc(F)c(-c3cnc(Cl)cn3)c21 , the value recorded as its remaining at 10 min, 0.5 µM is 77%

Given item CC1(C)CN(c2ccccc2NC(=O)Nc2ccc(OC(F)(F)F)cc2)c2c(O)cc(F)c(-c3ccc(Cl)cc3)c21 , the value recorded as its remaining at 10 min, 0.5 µM is 83%

Given item CC(C)(C)CN1CCCC1c1ccc(NC(=O)Nc2ccccc2N2CC(C)(C)c3c(-c4ccc(F)cc4)ccc(O)c32)cc1 (stereo unspecified) , the value recorded as its remaining at 10 min, 0.5 µM is 45%

Given item CC1(C)CN(c2ccccc2NC(=O)Nc2ccc(OC(F)(F)F)cc2)c2c(O)ccc(-c3ccccc3)c21 , the value recorded as its remaining at 10 min, 0.5 µM is 76%

Given item CC1(C)CN(c2ccccc2NC(=O)Nc2ccc(OC(F)(F)F)cc2)c2c(O)ccc(-c3ccc(F)cc3F)c21 , the value recorded as its remaining at 10 min, 0.5 µM is 81%

Given item CC1(C)CN(c2ccccc2NC(=O)Nc2ccc(OC(F)(F)F)cc2)c2c(O)cc(F)c(-c3ncc(F)cn3)c21 , the value recorded as its remaining at 10 min, 0.5 µM is 41%
